Test system: 253994-281-T-J1-PDC KRAS-mutant spheroids with HUVEC/MSC, viability
Assay: Anticancer human tumor 253994-281-T-J1-PDC patient-derived colorectal carcinoma cell line growth inhibition [KRAS2]
Conditions: curve of first compound; second compound 0.316 µM
Listing of entries alongside the reported IC50.
Return type: number; implicit unit µM.

Some solved cases for reference:
Cn1nccc1Nc1nccc(-c2cc3c(s2)C(C)(C)N(CCN2CCOCC2)C3=O)n1 + COc1cc2nc(C)nc(NC(C)c3cc(N)cc(C(F)(F)F)c3)c2cc1OC1CCOC1 | 0.85
CC1OCC2(CCN(c3cnc(Sc4ccnc(N)c4Cl)c(N)n3)CC2)C1N (stereo not given) + C=CC(=O)N1CCN(c2nc(=O)n(-c3c(C)ccnc3C(C)C)c3nc(-c4c(O)cccc4F)c(F)cc23)C(C)C1 | 6.56
CC(=O)Nc1cccc(-n2c(=O)n(C3CC3)c(=O)c3c(Nc4ccc(I)cc4F)n(C)c(=O)c(C)c32)c1 + CC1OCC2(CCN(c3cnc(Sc4ccnc(N)c4Cl)c(N)n3)CC2)C1N | 0.000205
COC(=O)c1ccc2c(C(=Nc3ccc(N(C)C(=O)CN4CCN(C)CC4)cc3)c3ccccc3)c(O)[nH]c2c1 + CC1OCC2(CCN(c3cnc(Sc4ccnc(N)c4Cl)c(N)n3)CC2)C1N | 3.48
CC1OCC2(CCN(c3cnc(Sc4ccnc(N)c4Cl)c(N)n3)CC2)C1N (stereo not given) + COc1cc2nc(C)nc(NC(C)c3cc(N)cc(C(F)(F)F)c3)c2cc1OC1CCOC1 | 9.31

[in] Any idea what IC50 was measured for COC(=O)c1ccc2c(C(=Nc3ccc(N(C)C(=O)CN4CCN(C)CC4)cc3)c3ccccc3)c(O)[nH]c2c1 + C=CC(=O)N1CCN(c2nc(OCC3CCCN3C)nc3c2CCN(c2cccc4cccc(C)c24)C3)CC1CC#N ?
[out] 3.34

[in] Any idea what IC50 was measured for CCN1CCN(Cc2ccc(Nc3ncc(F)c(-c4cc(F)c5nc(C)n(C(C)C)c5c4)n3)nc2)CC1 + CC1OCC2(CCN(c3cnc(Sc4ccnc(N)c4Cl)c(N)n3)CC2)C1N ?
[out] 0.422

[in] Any idea what IC50 was measured for CC1(C)CCC(CN2CCN(c3ccc(C(=O)NS(=O)(=O)c4ccc(NCC5CCOCC5)c([N+](=O)[O-])c4)c(Oc4cnc5[nH]ccc5c4)c3)CC2)=C(c2ccc(Cl)cc2)C1 + C=CC(=O)N1CCN(c2nc(OCC3CCCN3C)nc3c2CCN(c2cccc4cccc(C)c24)C3)CC1CC#N ?
[out] 8.92

====

Test system: 253994-281-T-J1-PDC KRAS-mutant spheroids with HUVEC/MSC, viability
Assay: Anticancer human tumor 253994-281-T-J1-PDC cell line growth inhibition [KRAS2];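 note: spheroids exposed to agents for seven days before readout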
Settings: curve of first compound; second compound 1 µM
readout.label: IC50

Cn1ncnc1[C@H]1c2n[nH]c(=O)c3cc(F)cc(c23)N[C@@H]1c1ccc(F)cc1 + COc1cc2nc(C)nc(NC(C)c3cc(N)cc(C(F)(F)F)c3)c2cc1OC1CCOC1 | > 0.1 µM
CC(=O)Nc1cccc(-n2c(=O)n(C3CC3)c(=O)c3c(Nc4ccc(I)cc4F)n(C)c(=O)c(C)c32)c1 + CNCc1ccccc1-c1csc(C(C)Nc2nc(C)nc3cc(OC)c(OC)cc23)c1 | 0.000205 µM
COc1cc(Nc2ncc3c(n2)-c2ccc(Cl)cc2C(c2c(F)cccc2OC)=NC3)ccc1C(=O)O + CNCc1ccccc1-c1csc(C(C)Nc2nc(C)nc3cc(OC)c(OC)cc23)c1 | < 0.0316 µM
COc1cc2nccc(Oc3ccc(NC(=O)C4(C(=O)Nc5ccc(F)cc5)CC4)cc3)c2cc1OC + CC1OCC2(CCN(c3cnc(Sc4ccnc(N)c4Cl)c(N)n3)CC2)C1N | 7.62 µM
CC(C)NCC(C(=O)N1CCN(c2ncnc3c2C(C)CC3O)CC1)c1ccc(Cl)cc1 (stereo unspecified) + CC1OCC2(CCN(c3cnc(Sc4ccnc(N)c4Cl)c(N)n3)CC2)C1N | > 10 µM
COC(=O)c1ccc2c(C(=Nc3ccc(N(C)C(=O)CN4CCN(C)CC4)cc3)c3ccccc3)c(O)[nH]c2c1 + CNCc1ccccc1-c1csc(C(C)Nc2nc(C)nc3cc(OC)c(OC)cc23)c1 | 4.52 µM
CC1OCC2(CCN(c3cnc(Sc4ccnc(N)c4Cl)c(N)n3)CC2)C1N (stereo unspecified) + C=CC(=O)N1CCN(c2nc(OCC3CCCN3C)nc3c2CCN(c2cccc4cccc(C)c24)C3)CC1CC#N | 5.05 µM
O=C(c1cc(Cc2n[nH]c(=O)c3ccccc23)ccc1F)N1CCN(C(=O)C2CC2)CC1 + COc1cc2nc(C)nc(NC(C)c3cc(N)cc(C(F)(F)F)c3)c2cc1OC1CCOC1 | > 10 µM

[in] Any idea what IC50 was measured for CN(C)C/C=C/C(=O)Nc1cc2c(Nc3ccc(F)c(Cl)c3)ncnc2cc1O[C@H]1CCOC1 + C=CC(=O)N1CCN(c2nc(OCC3CCCN3C)nc3c2CCN(c2cccc4cccc(C)c24)C3)CC1CC#N ?
[out] > 0.1 µM

[in] Any idea what IC50 was measured for COc1cc(Nc2ncc3c(n2)-c2ccc(Cl)cc2C(c2c(F)cccc2OC)=NC3)ccc1C(=O)O + CC1OCC2(CCN(c3cnc(Sc4ccnc(N)c4Cl)c(N)n3)CC2)C1N ?
[out] < 0.0316 µM

[in] Any idea what IC50 was measured for COc1cc(Nc2ncc3c(n2)-c2ccc(Cl)cc2C(c2c(F)cccc2OC)=NC3)ccc1C(=O)O + C=CC(=O)N1CCN(c2nc(=O)n(-c3c(C)ccnc3C(C)C)c3nc(-c4c(O)cccc4F)c(F)cc23)C(C)C1 ?
[out] > 10 µM

[in] Any idea what IC50 was measured for CC(=O)Nc1cccc(-n2c(=O)n(C3CC3)c(=O)c3c(Nc4ccc(I)cc4F)n(C)c(=O)c(C)c32)c1 + CC1OCC2(CCN(c3cnc(Sc4ccnc(N)c4Cl)c(N)n3)CC2)C1N ?
[out] < 0.0001 µM

[in] Any idea what IC50 was measured for CC1OCC2(CCN(c3cnc(Sc4ccnc(N)c4Cl)c(N)n3)CC2)C1N (stereo unspecified) + CNCc1ccccc1-c1csc(C(C)Nc2nc(C)nc3cc(OC)c(OC)cc23)c1 ?
[out] 4.61 µM

[in] Any idea what IC50 was measured for COc1cc2nccc(Oc3ccc(NC(=O)C4(C(=O)Nc5ccc(F)cc5)CC4)cc3)c2cc1OC + COc1cc2nc(C)nc(NC(C)c3cc(N)cc(C(F)(F)F)c3)c2cc1OC1CCOC1 ?
[out] 5.93 µM

[in] Any idea what IC50 was measured for CN(C)C/C=C/C(=O)Nc1cc2c(Nc3ccc(F)c(Cl)c3)ncnc2cc1O[C@H]1CCOC1 + CNCc1ccccc1-c1csc(C(C)Nc2nc(C)nc3cc(OC)c(OC)cc23)c1 ?
[out] > 0.1 µM

[in] Any idea what IC50 was measured for CN(C)C/C=C/C(=O)Nc1cc2c(Nc3ccc(F)c(Cl)c3)ncnc2cc1O[C@H]1CCOC1 + CC1OCC2(CCN(c3cnc(Sc4ccnc(N)c4Cl)c(N)n3)CC2)C1N ?
[out] > 0.1 µM

[in] Any idea what IC50 was measured for CCNC(=O)CC1N=C(c2ccc(Cl)cc2)c2cc(OC)ccc2-n2c(C)nnc21 (stereo unspecified) + CC1OCC2(CCN(c3cnc(Sc4ccnc(N)c4Cl)c(N)n3)CC2)C1N ?
[out] 3.86 µM

[in] Any idea what IC50 was measured for CC(C)NCC(C(=O)N1CCN(c2ncnc3c2C(C)CC3O)CC1)c1ccc(Cl)cc1 (stereo unspecified) + C=CC(=O)N1CCN(c2nc(OCC3CCCN3C)nc3c2CCN(c2cccc4cccc(C)c24)C3)CC1CC#N ?
[out] > 10 µM

[in] Any idea what IC50 was measured for CC1(C)CCC(CN2CCN(c3ccc(C(=O)NS(=O)(=O)c4ccc(NCC5CCOCC5)c([N+](=O)[O-])c4)c(Oc4cnc5[nH]ccc5c4)c3)CC2)=C(c2ccc(Cl)cc2)C1 + COc1cc2nc(C)nc(NC(C)c3cc(N)cc(C(F)(F)F)c3)c2cc1OC1CCOC1 ?
[out] 8.29 µM

[in] Any idea what IC50 was measured for CC(C)n1nc(-c2ccc3oc(N)nc3c2)c2c(N)ncnc21 + CNCc1ccccc1-c1csc(C(C)Nc2nc(C)nc3cc(OC)c(OC)cc23)c1 ?
[out] > 0.1 µM

[in] Any idea what IC50 was measured for CC1(C)CCC(CN2CCN(c3ccc(C(=O)NS(=O)(=O)c4ccc(NCC5CCOCC5)c([N+](=O)[O-])c4)c(Oc4cnc5[nH]ccc5c4)c3)CC2)=C(c2ccc(Cl)cc2)C1 + CNCc1ccccc1-c1csc(C(C)Nc2nc(C)nc3cc(OC)c(OC)cc23)c1 ?
[out] 4.57 µM
